# Measurement Description: Solubility of compound
# Assay type: physicochemical
Endpoint Label: solubility (µg/mL)

Worked set:
[ask] For CC1COCC(C)N1S(=O)(=O)c1cccc(C(=O)N/N=C2\CCc3c(Cl)ccc(O)c32)c1 (configuration not stated) , write its solubility.
[reply] 23.9

[ask] For CC1COCC(C)N1S(=O)(=O)c1cccc(C(=O)N/N=C2\CCc3cccc(O)c32)c1 (configuration not stated) , write its solubility.
[reply] 30.2

[ask] For O=C(N/N=C1\CCc2cccc(O)c21)c1cccc(S(=O)(=O)N2CCOCC2)c1 , write its solubility.
[reply] 27.9

[ask] For CC1COCC(C)N1S(=O)(=O)c1cccc(C(=O)N/N=C2\CCc3c(O)ccc(O)c32)c1 (configuration not stated) , write its solubility.
[reply] 77.2

[ask] For C/C(=N\NC(=O)c1cccc(S(=O)(=O)N2CCN(C)CC2)c1)c1cc(Cl)ccc1O [SECLIDEMSTAT] , write its solubility.
[reply] 35.7

(I) O=C(N/N=C1\CCc2c(O)ccc(O)c21)c1cccc(S(=O)(=O)N2CCOCC2)c1
(II) O=C(N/N=C1\CCc2c(Cl)ccc(O)c21)c1cccc(S(=O)(=O)N2CCOCC2)c1
[ask] Pick one: I or II . Which one has the lower reported solubility? To answer, give the label that identifies your chosen option.
[reply] II
(II: 29 µg/mL, I: 46.9 µg/mL)
